Sourced from ChEMBL document CHEMBL1123291

System: Rattus norvegicus
Assay remarks: Ability (% reversal in rats) to reverse electroconvulsive shock-induced amnesia in rodents at a dose of 0.10 (mg/kg) (following intramuscular dosing)
Assay type: functional
Measured quantity: Reversal (%)
Respond with the bare value in %.

# count of solved cases: 3
Molecule | Unit descriptor | Reversal
O=C(NCCCCC(CO)NC(=O)C1CCCN1C(=O)OCc1ccccc1)OCc1ccccc1 (stereo not drawn) | % | 40
CC(C)CC1CN(C[C@H](CC(C)C)NC(=O)[C@@H]2CCCN2C(=O)OCc2ccccc2)CC(=O)N1 (stereo partly drawn) | % | 50
CC(C)CC(CSCC(N)=O)NC(=O)C1CCCN1C(=O)OCc1ccccc1 (stereo not drawn) | % | 50

Form: molecule = O=C(NC(Cc1ccccc1)CN1C(=O)C2CCCN2C(=O)C1Cc1c[nH]cn1)c1ccccc1 (stereo not drawn) ; Reversal = 43

What the record says about CC(C)CC(/C=C/CC(N)=O)NC(=O)C1CCCN1C(=O)OCc1ccccc1 (stereo not drawn) : Reversal is 44

// field: Reversal; key: CCSCCNC(=O)C(CC(C)C)SCC1CCCN1C(=O)OCc1ccccc1 (stereo not drawn) ; value = 0

Sure, the documented Reversal for Cc1ccc(S(=O)(=O)N2CCCC2C(=O)NC(CNCC(=O)O)CC(C)C)cc1 (stereo not drawn) is 17

molecule NC(=O)CNC(=O)[C@H](CCCCNC(=O)OCc1ccccc1)NCC1CCCN1 (stereo partly drawn) , Reversal observed: 33

Record CC(C)CC(CSCC(=O)O)NC(=O)C1CCCN1C(=O)OCc1ccccc1 (stereo not drawn) , field Reversal: 14

// Reversal value for O=C(NCCCCC(SCC1CCCN1C(=O)OCc1ccccc1)C(=O)[O-])OCc1ccccc1.[Na+] (stereo not drawn) : 45

According to the records, this molecule Cc1ccc(C(=O)NC(CSCC(=O)O)CC(C)C)s1 (stereo not drawn) displays Reversal of 20

Reversal reading for Cc1ccc(S(=O)(=O)N2CCCC2CNC(CC(C)C)C(=O)NCC(=O)O)cc1 (stereo not drawn) : 0

* * *

System: Rattus norvegicus
Assay remarks: Ability (% reversal in rats) to reverse electroconvulsive shock-induced amnesia in rodents at a dose of 0.10 (mg/kg) (following intramuscular dosing)
Type: functional
Non-standard residues stand in square brackets, D forms with d. Residues, ends and D or L forms follow the SMILES beside them. ξ: configuration not given here. *: point of attachment. Cbz = O=C(OCc1ccccc1)*; Boc = CC(C)(C)OC(=O)*; ξK = NCCCCC(N)C(=O)O
This listing pairs compounds with measured Reversal.
Quick note: give the figure in %, leave out the unit.

Would you please look over these solved cases?
Compound | Measured quantity | Unit descriptor | Experimental result
NC(=O)CNC(=O)[C@H](CCCCNC(=O)OCc1ccccc1)NC(=O)[C@@H]1CCCN1 (H-Pro-Lys(Cbz)-Gly-NH2) | Reversal | % | 60
CC(C)CC(COCC(N)=O)NC(=O)C1CCCN1C(=O)OCc1ccccc1 (stereo unspecified) | Reversal | % | 14
O=C(O)CNC(=O)COCC1CCCN1C(=O)OCc1ccccc1 (stereo unspecified) | Reversal | % | 57
CC(C)CC(CS(=O)(=O)CC(=O)O)NC(=O)C1CCCN1C(=O)OCc1ccccc1 (stereo unspecified) | Reversal | % | 0

Reported Reversal ( O=C(O)COCC1CCCN1C(=O)OCc1ccccc1 (stereo unspecified) ) = 50

The compound CC(C)CC(COCC(=O)O)NC(=O)C1CCCN1C(=O)OCc1ccccc1 (stereo unspecified) showed Reversal equal to 0

For record NC(=O)CNC(=O)COCC1CCCN1C(=O)OCc1ccccc1 (stereo unspecified) the listed Reversal is 20

Kindly note the recorded Reversal for CC(C)(C)OC(=O)NC(CCCCNC(=O)OCc1ccccc1)C(=O)NCC(N)=O (stereo unspecified) (Boc-[ξK](Cbz)-Gly-NH2) , which is 16

Lab note: measured Reversal of NC(=O)CC[C@@H]1NC(=O)[C@H](Cc2ccccc2)NC(=O)[C@H](Cc2ccc(O)cc2)NC(=O)[C@@H](N)CSSC[C@@H](C(=O)N2CCC[C@H]2C(=O)N[C@@H](CCCN=C(N)N)C(=O)NCC(N)=O)NC(=O)[C@H](CC(N)=O)NC1=O was 60

Input CC(C)(C)OC(=O)N1CCCC1CN[C@@H](CCCCNC(=O)OCc1ccccc1)C(=O)NCC(N)=O (stereo partly specified) . Output Reversal: 16

// sample Cc1ccc(S(=O)(=O)N2CCCC2CN[C@@H](CC(C)C)C(=O)NCC(N)=O)cc1 (stereo partly specified) , its Reversal was 34
